# Test System: T1, human Tie2 (hTie2), as immobilised in the Octet assay of Example 1.4 (human, UniProt Q02763 349-738, limits assumed)
# T1 construct: The protein used was probably a soluble recombinant form, possibly hTie2-Ig3-FNIII(1-3)
# T1 sequence (Q02763 349-738 limits assumed): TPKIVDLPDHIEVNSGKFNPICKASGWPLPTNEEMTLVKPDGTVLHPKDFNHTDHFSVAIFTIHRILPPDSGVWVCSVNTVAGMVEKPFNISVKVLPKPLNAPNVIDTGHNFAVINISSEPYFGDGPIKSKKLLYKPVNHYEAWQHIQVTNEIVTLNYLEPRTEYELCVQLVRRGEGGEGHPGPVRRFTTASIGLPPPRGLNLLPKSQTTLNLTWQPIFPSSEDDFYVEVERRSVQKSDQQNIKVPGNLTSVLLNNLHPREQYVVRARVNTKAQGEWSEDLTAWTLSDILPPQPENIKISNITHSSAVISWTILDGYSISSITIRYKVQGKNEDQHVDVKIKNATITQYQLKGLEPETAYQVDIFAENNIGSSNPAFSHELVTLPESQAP
# Protocol Details: BLI (Octet), hTie2 immobilised on AR2G sensor, antibody as analyte, 1:1 global fit
# Protocol: The affinity of mouse monoclonal antibody against hTie2 was measured using Octet® system (ForteBio) where Black 96-well plates (96 well F-type black plates, Greiner) were used. […] After the hydration, hTie2 was diluted in 10 mM sodium acetate, pH 6.0 buffer at a concentration of 10 μg/ml, fixed on AR2G biosensor, and blocked with 1M ethanolamine. […]
Quantity Kind: kon (M⁻¹ s⁻¹)
Reply with just the number (in M⁻¹ s⁻¹).

Consider the worked cases shown below.
* mouse anti-Tie2 antibody 4A4 (antibody, V domains shown) VH: QVQLQQPGAELVRPGASVKLSCKASGYSFTSYWMNWVKQRPGQGLEWIGMIHPSDSETRLNQKFKDKATLTVDKSSSTAYMQLSSPTSEDSAVYYCARGYYFDYWGQGTTLTVSS VL: DIQMTQSPSSLSASLGERVSLTCRASQDIGISLNWLQQEPDGTIKRLIYATSSLDSGVPKRFTGSRSGSDYSLTISSLESEDFVDYYCLQYVSSPWTFGGGTKLEIK | 525000
* mouse anti-Tie2 antibody 3H7 (antibody, V domains shown) VH: QVQLQQPGAELVRPGASVKLSCKASGYSFTSYWMNWVKQRPGQGLEWIGMIHPSDSETRLNQKFMDKATLTVDKSSSTAYMQLSSPTSEDSAVYYCARGLYGNSWGQGTLVTVSA VL: DIQMTQSPSSLSASLGERVSLTCRASQDIGISLNWLQQEPDGTIKRLIYATSSLDSGVPKRFSGSRSGSDYSLTISSLESEDFVDYYCLQYASSPYTFGGGTKLEIK | 384000
* mouse anti-Tie2 antibody 3E12 (antibody, V domains shown) VH: QVQLQQPGADLVRPGASVKLSCKASGYSFTSYWMNWVKQRPGQGLEWIGMIHPSDSETRLNQKFKDKATLTVDKSSSTAYMQLSSPTSEDSAVYYCAKGYYFGYWGQGTTLTVSS VL: DIQMTQSPSSLSASLGERVSLTCRASQDIGISLNWLQQEPDGTIKRLIYATSNLDSGVPKRFSGSRSGSDYSLTISSLESEDFVDYYCLQYASSPPTFGGGTKLEIK | 363000
* mouse anti-Tie2 antibody 11C4 (antibody, V domains shown) VH: QVQLQQPGADLVRPGASVTLSCKASGYSFTSYWMNWVKQRPGQGLEWIGMIHPSDSETRLNQKFKDKATLTVDKSSSTAYMQLRSPTSEDSAVYYCAGLTIYFDYWGQGTTLTVSS VL: DIQMTQSPSSLSASLGERVSLTCRASQDIGISLNWLQQEPDGTIKRLIYATSSLDSGVPKRFSGSRSGSDYSLTISSLESEDFVDYYCLQYASSPYTFGGGTKLEIK | 1.52e+06

I have this binder here, mouse anti-Tie2 antibody 3B2 (antibody, V domains shown) VH: QVQLQQPGAELVRPGASVKLSCKASGYSFTSYWMNWVKQRPGQGLEWIGMIHPSDSETRLNQKFKDKATLTVDKSSSTAYLQLSSPTSEDSAVYYCARGNYFDCWGQGTTLTVSS VL: DIQMTQSPSSLSASLGERVSLTCRASQDIGISLNWLQQEPDGTIKRLIYATSILDSGVPKRFSGSRSGSDYSLTISSLESEDFVDYYCLQYASSPWTFGGGTKLEIK , and I need its recorded kon. 444000

Numbers sourced from patent US20250011438A1.
